- subject.of.test: c-Met (Homo sapiens, UniProt P08581)
- measurement.description: c-Met inhibitory assay using DeskTop Profiler (Method B)
- Format: biochemical
- Design: made in house
- run.parameters: ATP 43 μM
- Sequence (P08581 25-1390): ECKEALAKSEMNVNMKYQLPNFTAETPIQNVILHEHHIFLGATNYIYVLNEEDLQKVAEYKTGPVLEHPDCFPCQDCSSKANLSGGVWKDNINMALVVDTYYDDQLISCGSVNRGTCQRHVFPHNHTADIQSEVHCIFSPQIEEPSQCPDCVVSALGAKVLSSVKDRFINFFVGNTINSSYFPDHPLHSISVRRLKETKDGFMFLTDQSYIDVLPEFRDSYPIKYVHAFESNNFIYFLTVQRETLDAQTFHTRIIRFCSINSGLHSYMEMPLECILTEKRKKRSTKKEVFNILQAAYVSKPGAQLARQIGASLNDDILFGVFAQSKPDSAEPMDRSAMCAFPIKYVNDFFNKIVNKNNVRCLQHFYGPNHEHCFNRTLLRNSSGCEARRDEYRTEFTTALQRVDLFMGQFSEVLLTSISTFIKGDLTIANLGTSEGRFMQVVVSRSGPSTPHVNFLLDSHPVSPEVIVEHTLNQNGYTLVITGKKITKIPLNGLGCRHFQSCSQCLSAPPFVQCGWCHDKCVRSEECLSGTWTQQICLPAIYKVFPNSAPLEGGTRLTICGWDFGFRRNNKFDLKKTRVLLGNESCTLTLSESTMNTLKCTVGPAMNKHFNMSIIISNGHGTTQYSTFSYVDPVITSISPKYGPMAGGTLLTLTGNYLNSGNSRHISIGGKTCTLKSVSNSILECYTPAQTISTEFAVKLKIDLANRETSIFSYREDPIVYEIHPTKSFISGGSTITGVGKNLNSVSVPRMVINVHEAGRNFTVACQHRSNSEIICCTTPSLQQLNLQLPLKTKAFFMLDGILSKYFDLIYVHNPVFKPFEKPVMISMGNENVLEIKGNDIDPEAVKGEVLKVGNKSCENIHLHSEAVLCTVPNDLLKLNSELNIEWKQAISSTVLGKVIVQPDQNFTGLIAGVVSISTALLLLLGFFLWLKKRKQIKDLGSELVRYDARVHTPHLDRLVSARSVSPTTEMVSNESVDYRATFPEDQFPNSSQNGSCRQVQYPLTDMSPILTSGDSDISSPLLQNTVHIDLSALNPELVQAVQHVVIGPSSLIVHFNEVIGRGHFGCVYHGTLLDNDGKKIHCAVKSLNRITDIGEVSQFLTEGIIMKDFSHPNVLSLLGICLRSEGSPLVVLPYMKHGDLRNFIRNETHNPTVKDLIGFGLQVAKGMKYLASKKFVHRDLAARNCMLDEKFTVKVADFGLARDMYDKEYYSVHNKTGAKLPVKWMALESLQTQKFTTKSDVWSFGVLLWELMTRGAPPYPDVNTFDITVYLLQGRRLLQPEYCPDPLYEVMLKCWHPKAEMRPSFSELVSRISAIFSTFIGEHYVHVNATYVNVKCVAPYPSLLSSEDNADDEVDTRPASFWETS
Label key: yes means IC50 under 50 nM; no means IC50 of 50 nM or more.

Solved cases (5 shown):
INSERT INTO results (compound, subject_of_test, discrete_label) VALUES
  ('COc1cc2nccc(Oc3ccc(NC(=S)NC(=O)Cc4ccccc4)cc3F)c2cc1C(=O)N(C)C [Example 50]', 'c-Met (Homo sapiens, UniProt P08581)', 'no'),
  ('COc1cc2nccc(Oc3ccc(NC(=S)NC(=O)Cc4ccccc4)cc3F)c2cc1C(=O)NCC(=O)N1CCC[C@H]1CO [Example 34]', 'c-Met (Homo sapiens, UniProt P08581)', 'yes'),
  ('CNC(=O)c1cc2c(Oc3ccc(NC(=S)NC(=O)Cc4ccc(C(F)(F)F)cc4)cc3F)ccnc2cc1OC [Example 47]', 'c-Met (Homo sapiens, UniProt P08581)', 'no'),
  ('CNC(=O)c1cc2c(Oc3ccc(NC(=S)NC(=O)Cc4ccccc4)c(F)c3)ccnc2cc1OC [Example 49]', 'c-Met (Homo sapiens, UniProt P08581)', 'no'),
  ('COc1cc2nccc(Oc3ccc(NC(=S)NC(=O)Cc4ccc(F)cc4)cc3F)c2cc1C(=O)NCCN1CCOCC1 [Example 37]', 'c-Met (Homo sapiens, UniProt P08581)', 'yes');

Is it true that IC50 reported for CNC(=O)c1cc2c(Oc3ccc(NC(=S)NC(=O)Cc4cccc(OC)c4)cc3F)ccnc2cc1OC [Example 46] is less than 50 nM?
no

Is it true that IC50 reported for COc1cc2nccc(Oc3ccc(NC(=S)NC(=O)Cc4ccccc4)cc3F)c2cc1C(=O)NCCC(=O)N(C)C [Example 36] is less than 50 nM?
no

Is it true that IC50 reported for CC[C@@H](CO)NC(=O)c1cc2c(Oc3ccc(NC(=S)NC(=O)Cc4ccccc4)cc3F)ccnc2cc1OC [Example 31] is less than 50 nM?
yes

* * *

pIC50 listing for selected molecules.
- subject.of.test: c-Met (Homo sapiens)
- measurement.description: c-Met inhibitory assay using AlphaScreen (Method A)
- Type: biochemical
- Parameters: purchased Carna bio Co., Ltd 08-051
- run.parameters: ATP 20 μM
- Sequence (P08581 956-1390 limits assumed): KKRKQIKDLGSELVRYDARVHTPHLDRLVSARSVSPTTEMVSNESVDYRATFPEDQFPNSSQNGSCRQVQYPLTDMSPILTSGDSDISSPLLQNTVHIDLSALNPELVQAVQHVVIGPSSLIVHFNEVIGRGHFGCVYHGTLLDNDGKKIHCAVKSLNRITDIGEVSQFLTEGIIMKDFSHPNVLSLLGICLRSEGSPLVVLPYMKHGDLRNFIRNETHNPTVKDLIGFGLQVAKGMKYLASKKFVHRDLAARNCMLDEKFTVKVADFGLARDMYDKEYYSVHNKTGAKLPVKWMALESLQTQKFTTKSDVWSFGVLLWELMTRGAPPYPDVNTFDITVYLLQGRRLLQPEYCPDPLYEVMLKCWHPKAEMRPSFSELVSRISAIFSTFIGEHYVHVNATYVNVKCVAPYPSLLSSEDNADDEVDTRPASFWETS
In simple prose, pIC50 is minus the logarithm base ten of a concentration in moles per litre.

A selection of reference data follows.
INSERT INTO assay_data (molecule, readout_label, value_reported) VALUES
  ('COc1cc2nccc(Oc3ccc(NC(=S)NC(=O)Cc4ccccc4)cc3F)c2cc1C(=O)NCCCN1CCCC1=O [Example 5]', 'pIC50', 6.94),
  ('COc1cc2nccc(Oc3ccc(NC(=S)NC(=O)Cc4ccccc4)cc3F)c2cc1C(=O)NC(CO)CO [Example 12]', 'pIC50', 7.28),
  ('COc1cc2nccc(Oc3ccc(NC(=S)NC(=O)Cc4ccccc4)cc3F)c2cc1C(=O)NCC1(O)CCOCC1 [Example 26]', 'pIC50', 6.90),
  ('COc1cc2nccc(Oc3ccc(NC(=S)NC(=O)Cc4ccccc4)cc3F)c2cc1C(=O)N1CCC(N2CCCC2)CC1 [Example 51]', 'pIC50', 6.87);

Kindly review the next molecule as well.
Recorded pIC50 of COc1cc2nccc(Oc3ccc(NC(=S)NC(=O)Cc4ccccc4)cc3F)c2cc1C(=O)NCCN1CCOCC1 [Example 9] , please.
6.99
